- testSummary: qHTS Assay for Inhibitors of Hepatitis C Virus (HCV)
- measurementContext: Huh7.5.1 HCVcc-Cre infection, luciferase reporter, 44 h; series mostly up to 41.8 µM
The whole screen tested about 340,000 compounds, of which about 12,000 (3.5%) were called active. Another 18% or so got no clear call; they are omitted. The call rests on the fitted dose curve; in most records, active means well fitted inhibition curve with a large enough effect; inconclusive means small, poorly fitted or top-dose-only effect, or another doubt; inactive means no such curve, though single readings can be large or run the other way. The full list was thinned out, with actives kept by preference.
Thanks in advance; please answer with one of these: YES (active), NO (inactive)

>  <compound>
Cc1ccc(C)c(NC(=O)CN(C)C(=O)COc2ccc3ccccc3c2)c1

>  <label>
NO

$$$$
>  <compound>
COc1ccc(C2CC(c3cccs3)=NN2c2ccc(F)cc2)cc1OC (stereo unspecified)

>  <label>
NO

$$$$
>  <compound>
COc1ccc(C2CC(c3cccs3)=Nc3ccccc3S2)cc1OC (stereo unspecified)

>  <label>
YES

$$$$
>  <compound>
C/C(=N\NC(=O)Cc1ccc(Br)cc1)c1cccnc1

>  <label>
NO

$$$$
>  <compound>
Cn1nnnc1SCC(=O)Nc1sccc1C(N)=O

>  <label>
NO

$$$$

Please turn your attention to the following entry.
Ask: Check the results log: what was the call for "C/C(CC(=O)Nc1ccc(N(C)C)cc1)=N\NC(=O)c1ccccc1F" ?
Result: NO
